# Study Target: mouse ADAMTS7 (Mus musculus, UniProt Q68SA9, E373Q)
# Construct: Full-length mouse Adamts7 1-1857 (Uniprot Q68SA9, WT or E373Q catalytic mutant); expressed in transfected cells; host or cells: Human Coronary Artery Smooth Muscle Cells (HCA-SMC, Lonza), adenovirus 50 MOI
# Sequence (Q68SA9 221-1657 E373Q): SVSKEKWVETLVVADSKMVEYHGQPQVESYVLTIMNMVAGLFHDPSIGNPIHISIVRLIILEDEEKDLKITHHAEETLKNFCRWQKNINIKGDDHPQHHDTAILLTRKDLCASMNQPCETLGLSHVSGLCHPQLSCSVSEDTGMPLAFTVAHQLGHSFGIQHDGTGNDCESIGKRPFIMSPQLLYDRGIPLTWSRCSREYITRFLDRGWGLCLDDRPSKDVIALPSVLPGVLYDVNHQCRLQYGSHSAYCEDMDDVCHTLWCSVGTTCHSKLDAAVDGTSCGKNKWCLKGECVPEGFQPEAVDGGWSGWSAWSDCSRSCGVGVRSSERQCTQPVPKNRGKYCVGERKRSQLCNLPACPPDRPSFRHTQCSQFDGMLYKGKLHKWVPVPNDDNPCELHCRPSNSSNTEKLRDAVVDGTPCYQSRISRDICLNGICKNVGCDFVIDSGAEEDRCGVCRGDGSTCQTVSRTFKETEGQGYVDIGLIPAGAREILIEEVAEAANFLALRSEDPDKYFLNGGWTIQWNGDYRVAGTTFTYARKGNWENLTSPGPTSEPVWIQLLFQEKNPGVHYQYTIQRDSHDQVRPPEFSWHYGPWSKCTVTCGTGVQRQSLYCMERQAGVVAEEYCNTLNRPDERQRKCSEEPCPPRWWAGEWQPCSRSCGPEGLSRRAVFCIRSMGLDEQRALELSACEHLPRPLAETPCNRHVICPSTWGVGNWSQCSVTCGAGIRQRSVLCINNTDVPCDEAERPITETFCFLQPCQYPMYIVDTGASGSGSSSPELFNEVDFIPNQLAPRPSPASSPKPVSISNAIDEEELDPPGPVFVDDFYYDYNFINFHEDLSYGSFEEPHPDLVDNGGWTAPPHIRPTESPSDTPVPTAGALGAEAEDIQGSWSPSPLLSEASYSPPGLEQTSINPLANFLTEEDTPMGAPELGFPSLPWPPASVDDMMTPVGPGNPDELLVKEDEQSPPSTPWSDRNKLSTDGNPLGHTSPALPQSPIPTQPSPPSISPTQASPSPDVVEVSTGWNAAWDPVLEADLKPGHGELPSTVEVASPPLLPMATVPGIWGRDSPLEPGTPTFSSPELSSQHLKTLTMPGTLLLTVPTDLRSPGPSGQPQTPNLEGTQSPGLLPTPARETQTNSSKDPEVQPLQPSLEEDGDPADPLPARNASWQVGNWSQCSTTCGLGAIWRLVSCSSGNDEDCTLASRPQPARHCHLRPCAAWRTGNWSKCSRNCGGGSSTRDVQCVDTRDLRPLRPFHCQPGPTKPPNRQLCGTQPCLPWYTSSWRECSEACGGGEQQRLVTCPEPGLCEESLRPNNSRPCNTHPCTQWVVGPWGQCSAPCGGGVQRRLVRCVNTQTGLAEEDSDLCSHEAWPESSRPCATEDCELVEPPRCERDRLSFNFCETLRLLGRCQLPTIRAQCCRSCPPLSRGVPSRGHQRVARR
# Method: TMT10 TAILS N-terminomics, HUVEC experiment (process replicates, trypsin/AspN digest)
# Assay type: cell-based, human
# Condition Context: HUVEC TAILS HC; log fold change of N-terminal peptide, Ad-mADAMTS7 EQ over Luc
Square brackets hold non-standard residues; d marks the D form. Ends that are not written are not given here.
Value Kind: logFC.mEQ.over.Luc
Numbers only.

substance="NID2_291 (HSSVPLGR; listed as Homo sapiens)" study_target="mouse ADAMTS7 (Mus musculus, UniProt Q68SA9, E373Q)" value_kind=logFC.mEQ.over.Luc data_value=−0.10
substance="IGFBP7_101 (AAGGPGVSGVCVCKSR; listed as Homo sapiens)" study_target="mouse ADAMTS7 (Mus musculus, UniProt Q68SA9, E373Q)" value_kind=logFC.mEQ.over.Luc data_value=−0.04
substance="ZYX_244 (PVSLANTQPR; listed as Homo sapiens)" study_target="mouse ADAMTS7 (Mus musculus, UniProt Q68SA9, E373Q)" value_kind=logFC.mEQ.over.Luc data_value=0.18
substance="FN1_1143 (LTPGVEYVYTIQVLR; listed as Homo sapiens)" study_target="mouse ADAMTS7 (Mus musculus, UniProt Q68SA9, E373Q)" value_kind=logFC.mEQ.over.Luc data_value=−0.24

Here's the next entry for you.
Recall and state the measured logFC.mEQ.over.Luc for FN1_35 ([code q]MVQPQSPVAVSQSKPGCY; not fully specified (residue 2); listed as Homo sapiens) .
−0.27
